target: Metabotropic glutamate receptor 1 (Homo sapiens, UniProt Q13255); experiment: Positive allosteric modulatory activity at human mGlu1 receptor expressed in wild type T-Rex293 cells assessed as increase in glutamate-induced calcium mobilization pre-incubated for 2.5 mins before glutamate stimulation for 1 min; type: functional, cell-based; details: read-out: EC50
Sequence (Q13255 whole entry): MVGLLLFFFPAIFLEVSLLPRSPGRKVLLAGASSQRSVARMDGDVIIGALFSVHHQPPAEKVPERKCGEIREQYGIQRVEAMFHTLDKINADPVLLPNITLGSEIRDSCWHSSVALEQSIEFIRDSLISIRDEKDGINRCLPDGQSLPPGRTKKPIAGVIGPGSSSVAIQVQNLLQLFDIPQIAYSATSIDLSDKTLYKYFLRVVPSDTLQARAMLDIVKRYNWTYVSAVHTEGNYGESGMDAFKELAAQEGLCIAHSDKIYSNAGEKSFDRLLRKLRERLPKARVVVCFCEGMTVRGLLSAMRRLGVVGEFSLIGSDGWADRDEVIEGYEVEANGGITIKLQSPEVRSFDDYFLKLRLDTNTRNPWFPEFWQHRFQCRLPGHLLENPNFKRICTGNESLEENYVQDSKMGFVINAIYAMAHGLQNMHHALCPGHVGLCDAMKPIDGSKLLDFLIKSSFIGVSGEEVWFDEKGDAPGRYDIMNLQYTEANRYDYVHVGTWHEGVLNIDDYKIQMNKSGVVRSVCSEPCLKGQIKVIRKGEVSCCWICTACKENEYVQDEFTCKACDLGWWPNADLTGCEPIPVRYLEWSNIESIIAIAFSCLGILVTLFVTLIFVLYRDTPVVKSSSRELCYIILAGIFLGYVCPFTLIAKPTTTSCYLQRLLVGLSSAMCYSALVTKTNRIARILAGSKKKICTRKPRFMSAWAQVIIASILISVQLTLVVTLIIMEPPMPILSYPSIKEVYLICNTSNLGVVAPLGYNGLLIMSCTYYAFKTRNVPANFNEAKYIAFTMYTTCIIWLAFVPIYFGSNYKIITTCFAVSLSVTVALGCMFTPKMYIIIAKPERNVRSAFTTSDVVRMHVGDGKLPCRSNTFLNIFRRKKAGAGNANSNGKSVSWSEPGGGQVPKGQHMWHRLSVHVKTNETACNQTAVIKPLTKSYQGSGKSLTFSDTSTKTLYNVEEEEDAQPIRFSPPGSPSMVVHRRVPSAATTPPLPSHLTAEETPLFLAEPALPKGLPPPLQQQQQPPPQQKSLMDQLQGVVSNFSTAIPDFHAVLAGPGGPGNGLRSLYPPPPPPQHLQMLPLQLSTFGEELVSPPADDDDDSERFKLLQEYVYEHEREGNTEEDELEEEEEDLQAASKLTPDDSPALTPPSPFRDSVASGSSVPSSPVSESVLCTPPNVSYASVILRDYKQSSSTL
Classes by EC50: group 1: < 1000 nM; group 2: ≥ 1000 nM and < 3000 nM; group 3: ≥ 3000 nM

A selection of reference data follows.
>>> assigned_category("Cc1ccoc1C(=O)Nc1ccc(N2Cc3c(cccc3C(F)(F)F)C2=O)c(Cl)c1")
"group 2"
>>> assigned_category("Cc1cccnc1C(=O)Nc1ccc(N2Cc3ccccc3C2=O)c(Cl)c1")
"group 3"
>>> assigned_category("Cc1cccnc1C(=O)Nc1ccc(N2Cc3c(Cl)cccc3C2=O)c(Cl)c1")
"group 2"
>>> assigned_category("Cc1ccoc1C(=O)Nc1ccc(N2Cc3c(Cl)cccc3C2=O)c(Cl)c1")
"group 1"
>>> assigned_category("Cc1ccoc1C(=O)Nc1ccc(N2C(=O)c3ccccc3C2(C)C)c(Cl)c1")
"group 3"

Query: Which category fits this record: `Cc1ccoc1C(=O)Nc1ccc(NC(=O)c2ccccc2)c(Cl)c1`
Response: group 3

Query: Which category fits this record: `Cc1ccoc1C(=O)Nc1ccc(N2Cc3c(F)cccc3C2=O)c(Cl)c1`
Response: group 1

Query: Which category fits this record: `Cc1ccoc1C(=O)Nc1ccc(N2CCc3ccccc32)c(Cl)c1`
Response: group 3

Query: Which category fits this record: `O=C(Nc1ccc(N2Cc3ccccc3C2=O)c(Cl)c1)c1ncccc1Cl`
Response: group 3

Query: Which category fits this record: `Cc1ccoc1C(=O)Nc1ccc(NC(=O)c2ccccc2C(=O)O)c(Cl)c1`
Response: group 1

Query: Which category fits this record: `Cc1ccoc1C(=O)Nc1ccc(N2Cc3cccc(Cl)c3C2=O)c(Cl)c1Cl`
Response: group 3

Query: Which category fits this record: `Cc1ccoc1C(=O)Nc1ccc(N2Cc3ccccc3C2=O)c(Cl)c1`
Response: group 3

Query: Which category fits this record: `Cc1ccoc1C(=O)Nc1ccc(N2CCc3ccccc3C2=O)c(Cl)c1`
Response: group 1

Query: Which category fits this record: `Cc1scnc1C(=O)Nc1ccc(N2Cc3c(Cl)cccc3C2=O)c(Cl)c1`
Response: group 1

Query: Which category fits this record: `Cc1ccoc1C(=O)Nc1ccc(N2CCOc3ncccc32)c(Cl)c1`
Response: group 2

Query: Which category fits this record: `Cc1ccoc1C(=O)Nc1ccc(N2Cc3cccnc3C2)c(Cl)c1`
Response: group 3

Query: Which category fits this record: `Cc1ccoc1C(=O)Nc1ccc(N2Cc3c(C)cccc3C2=O)c(Cl)c1`
Response: group 2

Query: Which category fits this record: `Cc1ccoc1C(=O)Nc1ccc(N2Cc3cc(Cl)ccc3C2=O)c(Cl)c1`
Response: group 3

Query: Which category fits this record: `Cc1ccoc1C(=O)Nc1ccc(N2C(=O)CCc3ccccc32)c(Cl)c1`
Response: group 2

Query: Which category fits this record: `Cc1ccoc1C(=O)Nc1ccc(N2Cc3c(Cl)cccc3C2=O)cc1`
Response: group 1

Query: Which category fits this record: `Cc1ccoc1C(=O)Nc1ccc(N2Cc3cccnc3C2=O)c(Cl)c1`
Response: group 3
